Test system: HT29 colon
assay-notes: NCI tumour cell line growth inhibition, 48 h
# reported TGI; entries follow

{"columns": ["molecule", "TGI"],
 "data": [
  ["Cc1nc(C)c(N2CCN(C(=O)NC(CCC(=O)O)C(=O)O)CC2)c(=O)[nH]1 (stereo not given)", "> 100 µM"],
  ["COc1cccc(-c2nc(-c3ccc(NS(=O)(=O)c4ccccc4)cc3)[nH]c2-c2ccnc(Br)c2)c1", "> 100 µM"],
  ["N#CCN(Cc1ccccc1)[C@H]1CCC[C@]1(O)/C=C/c1ccc2c(c1)OCO2", "29.8 µM"],
  ["Nc1ccc(CCN2CCN(c3cccc(C(F)(F)F)c3)CC2)cc1", "> 100 µM"],
  ["COc1ccc(C(=O)c2cc(OC)c(OC)c(OC)c2)cc1/C=C/C(=O)c1ccc(O)cc1", "> 100 µM"]
]}

The values you see were collected from PubChem BioAssay (NCI).
